assay: calcein-AM signal in unstimulated myeloma cells – cell-based, calcein-AM fluorescence, 48 h, PK04 Diversity Set, profiling panel (AID 1166); settings: RPMI8226 myeloma viability, higher = more signal;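 also: cells grown under basal conditions without added stimulus; test concentration not given here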
Mark Yes only for z-score values smaller than -0.3; exact matches and larger values are No.

Take a look at these entries with their results.
{"MOLECULE": "CCOC(=O)C[C@H]1[C@H](OC(=O)c2cc3ccccc3oc2=O)[C@@H](NC(=O)CC(C)C)c2cc(OCCCO)ccc2N1C(=O)c1ccc2ccccc2n1", "CLASS": "No"}
{"MOLECULE": "CC(C)[Si](C#CCCCC#N)(O[C@H](c1ccccc1)c1cn(Cc2ccccc2)nn1)C(C)C", "CLASS": "Yes"}
{"MOLECULE": "CS(=O)(=O)CCOC(=O)C1=CC(c2ccc(CO)cc2)=CC(C2CC2)N(Cc2sc3ccccc3c2Cl)C=C1C(=O)OCCS(C)(=O)=O (stereo not drawn)", "CLASS": "Yes"}

Is it true that z-score reported for `CCCC=C(CCC)[C@@H](NC(=O)c1cccs1)c1ccc(C(=O)OC)cc1` is less than -0.3?
No

Is it true that z-score reported for `Cc1ccc(S[C@]2(C(=O)NCc3ccccc3)CC(=O)N(C3CCCCC3)[C@@H]2c2ccc(CO)cc2I)cc1` is less than -0.3?
Yes

Is it true that z-score reported for `CCCC[C@@H](O)C1=C(COC)C[C@H]2C(=O)N(C)C(=O)[C@H]2[C@H]1CO` is less than -0.3?
No

Is it true that z-score reported for `CC(C)NC(=O)[C@@]1(c2ccc([N+](=O)[O-])cc2)CC(=O)N(C2CCCCC2)[C@@H]1c1ccc(CO)cc1` is less than -0.3?
Yes

Is it true that z-score reported for CN1C(=O)C2C=CC(C(O)c3cccn3C)N(Nc3ccc([N+](=O)[O-])cc3[N+](=O)[O-])C2C1=O (stereo not drawn) is less than -0.3?
No
